Recorded pKd values for a group of binders are listed next.
# targetOfAssay: T1, human OPGbp [143-317] (human, UniProt O14788 143-317)
# T1 construct: also called OPGL
# T1 sequence (looked up): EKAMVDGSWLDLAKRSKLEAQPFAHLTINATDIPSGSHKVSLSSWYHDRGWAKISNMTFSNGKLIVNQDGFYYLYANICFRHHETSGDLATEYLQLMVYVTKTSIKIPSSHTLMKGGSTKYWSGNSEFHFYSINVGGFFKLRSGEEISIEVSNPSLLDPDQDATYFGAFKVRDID
# test: SPR (BIAcore), immobilized OPGbp [143-317]
The read-out pKd is expressed as -log10 of concentration in moles per litre.

“AT” antibody variant S97Q (heavy chain CDR3) (antibody, name in Kabat numbering, V domains shown, not shown: human IgG1 CH1, hinge, CH2 and CH3) VH: QVQLVQSGAEVRKPGASVKVSCKASGYDFSNYAIHWVRQAPGQRLEWMGWINAGNGNTKFSQKFQGRITVTRDTAASTAYMELRSLRSEDTAVYYCARDSQNMVRGIIIAYYFDYWGQGTLVTVSS VL: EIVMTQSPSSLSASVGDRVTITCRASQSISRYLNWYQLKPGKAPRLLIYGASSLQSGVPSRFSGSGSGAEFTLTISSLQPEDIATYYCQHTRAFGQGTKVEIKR = 8.09
“AT” antibody variant S97T (heavy chain CDR3) (antibody, name in Kabat numbering, V domains shown, not shown: human IgG1 CH1, hinge, CH2 and CH3) VH: QVQLVQSGAEVRKPGASVKVSCKASGYDFSNYAIHWVRQAPGQRLEWMGWINAGNGNTKFSQKFQGRITVTRDTAASTAYMELRSLRSEDTAVYYCARDSTNMVRGIIIAYYFDYWGQGTLVTVSS VL: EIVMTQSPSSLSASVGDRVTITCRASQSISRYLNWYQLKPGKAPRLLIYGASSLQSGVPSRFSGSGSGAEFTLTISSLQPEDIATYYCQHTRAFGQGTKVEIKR = 8.60

Q) Given “AT” antibody variant S97R (heavy chain CDR3) (antibody, name in Kabat numbering, V domains shown, not shown: human IgG1 CH1, hinge, CH2 and CH3) VH: QVQLVQSGAEVRKPGASVKVSCKASGYDFSNYAIHWVRQAPGQRLEWMGWINAGNGNTKFSQKFQGRITVTRDTAASTAYMELRSLRSEDTAVYYCARDSRNMVRGIIIAYYFDYWGQGTLVTVSS VL: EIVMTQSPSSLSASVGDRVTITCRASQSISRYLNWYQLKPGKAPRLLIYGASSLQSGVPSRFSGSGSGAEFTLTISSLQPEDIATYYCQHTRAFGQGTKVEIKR , state its recorded pKd.
A) 7.54

Q) Given “AT” antibody variant S97M (heavy chain CDR3) (antibody, name in Kabat numbering, V domains shown, not shown: human IgG1 CH1, hinge, CH2 and CH3) VH: QVQLVQSGAEVRKPGASVKVSCKASGYDFSNYAIHWVRQAPGQRLEWMGWINAGNGNTKFSQKFQGRITVTRDTAASTAYMELRSLRSEDTAVYYCARDSMNMVRGIIIAYYFDYWGQGTLVTVSS VL: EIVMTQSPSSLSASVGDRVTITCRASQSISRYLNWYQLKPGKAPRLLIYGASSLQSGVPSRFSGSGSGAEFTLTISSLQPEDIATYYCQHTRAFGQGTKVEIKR , state its recorded pKd.
A) 7.91

Q) Given “AT” antibody variant S97E (heavy chain CDR3) (antibody, name in Kabat numbering, V domains shown, not shown: human IgG1 CH1, hinge, CH2 and CH3) VH: QVQLVQSGAEVRKPGASVKVSCKASGYDFSNYAIHWVRQAPGQRLEWMGWINAGNGNTKFSQKFQGRITVTRDTAASTAYMELRSLRSEDTAVYYCARDSENMVRGIIIAYYFDYWGQGTLVTVSS VL: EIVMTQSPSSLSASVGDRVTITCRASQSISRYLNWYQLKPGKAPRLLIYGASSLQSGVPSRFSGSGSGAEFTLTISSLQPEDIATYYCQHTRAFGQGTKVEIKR , state its recorded pKd.
A) 5.71

Q) Given “AT” antibody variant S97I (heavy chain CDR3) (antibody, name in Kabat numbering, V domains shown, not shown: human IgG1 CH1, hinge, CH2 and CH3) VH: QVQLVQSGAEVRKPGASVKVSCKASGYDFSNYAIHWVRQAPGQRLEWMGWINAGNGNTKFSQKFQGRITVTRDTAASTAYMELRSLRSEDTAVYYCARDSINMVRGIIIAYYFDYWGQGTLVTVSS VL: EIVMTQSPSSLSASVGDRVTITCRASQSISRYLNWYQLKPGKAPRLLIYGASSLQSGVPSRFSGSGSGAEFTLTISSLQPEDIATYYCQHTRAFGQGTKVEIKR , state its recorded pKd.
A) 9.06

Q) Given “AT” antibody variant S97N (heavy chain CDR3) (antibody, name in Kabat numbering, V domains shown, not shown: human IgG1 CH1, hinge, CH2 and CH3) VH: QVQLVQSGAEVRKPGASVKVSCKASGYDFSNYAIHWVRQAPGQRLEWMGWINAGNGNTKFSQKFQGRITVTRDTAASTAYMELRSLRSEDTAVYYCARDSNNMVRGIIIAYYFDYWGQGTLVTVSS VL: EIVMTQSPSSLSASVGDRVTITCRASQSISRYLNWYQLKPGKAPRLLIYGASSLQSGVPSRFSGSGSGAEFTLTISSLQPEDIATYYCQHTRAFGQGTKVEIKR , state its recorded pKd.
A) 8.34

Q) Given “AT” antibody variant S97P (heavy chain CDR3) (antibody, name in Kabat numbering, V domains shown, not shown: human IgG1 CH1, hinge, CH2 and CH3) VH: QVQLVQSGAEVRKPGASVKVSCKASGYDFSNYAIHWVRQAPGQRLEWMGWINAGNGNTKFSQKFQGRITVTRDTAASTAYMELRSLRSEDTAVYYCARDSPNMVRGIIIAYYFDYWGQGTLVTVSS VL: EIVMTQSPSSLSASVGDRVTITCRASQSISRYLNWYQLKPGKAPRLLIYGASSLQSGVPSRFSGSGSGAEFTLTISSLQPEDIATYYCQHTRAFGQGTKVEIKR , state its recorded pKd.
A) 7.61

Q) Given “AT” antibody variant S97H (heavy chain CDR3) (antibody, name in Kabat numbering, V domains shown, not shown: human IgG1 CH1, hinge, CH2 and CH3) VH: QVQLVQSGAEVRKPGASVKVSCKASGYDFSNYAIHWVRQAPGQRLEWMGWINAGNGNTKFSQKFQGRITVTRDTAASTAYMELRSLRSEDTAVYYCARDSHNMVRGIIIAYYFDYWGQGTLVTVSS VL: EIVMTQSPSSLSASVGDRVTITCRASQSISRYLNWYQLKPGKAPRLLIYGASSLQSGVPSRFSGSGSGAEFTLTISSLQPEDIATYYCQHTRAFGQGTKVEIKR , state its recorded pKd.
A) 8.52

Q) Given “AT” antibody variant S97K (heavy chain CDR3) (antibody, name in Kabat numbering, V domains shown, not shown: human IgG1 CH1, hinge, CH2 and CH3) VH: QVQLVQSGAEVRKPGASVKVSCKASGYDFSNYAIHWVRQAPGQRLEWMGWINAGNGNTKFSQKFQGRITVTRDTAASTAYMELRSLRSEDTAVYYCARDSKNMVRGIIIAYYFDYWGQGTLVTVSS VL: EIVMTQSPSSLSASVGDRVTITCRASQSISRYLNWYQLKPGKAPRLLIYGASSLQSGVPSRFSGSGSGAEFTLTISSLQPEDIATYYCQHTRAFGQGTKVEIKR , state its recorded pKd.
A) 9.40
